assay text: Stability in human serum
Assay type: in vitro ADME
condition info: 37° C., HPLC MS
value kind: Stability in human serum [% rest after 3 h incubation] (%)
Kindly provide the numeric value in % only, without the unit symbol.

C#C[C@H](C)OC(=O)c1csc(-c2ccc(OCC)cc2)n1
100

Task: Which Stability in human serum [% rest after 3 h incubation] is listed for CCCCCCOc1ccc(-c2cccc(C(=O)OC(C)C)n2)cc1 ?
Result: 80

---

Test system: goat ATGL
assay text: Goat ATGL inhibition, Expi lysates + CGI-58
Assay type: biochemical
Classification field: enter YES for goat ATGL inhibition [% inhibition at 50 μM values not below 40%, NO for values below it.

Worked examples follow.
CCOc1ccc(-c2nc(C(=O)OCc3ccsc3)cs2)cc1
YES
CCCCOC(=O)c1csc(-c2ccc(OCC)cc2)n1
NO
CCOc1ccc(-c2cccc(C(=O)OCc3ccco3)n2)cc1
NO
CCOc1ccc(-c2cccc(C(=O)OCc3cccs3)n2)cc1
YES
C#C[C@@H](C)OC(=O)c1csc(-c2ccc(OCC)cc2)n1
NO

# next compound below
Task: Reported goat ATGL inhibition [% inhibition at 50 μM reaches at least 40% for CC#CCOC(=O)c1csc(-c2ccc(OCC)cc2)n1 ?
Result: NO

---

target system: human ATGL (Homo sapiens)
Construct: made in house; host or cells: Expi cells (lysate, not purified)
Sequence (Q96AD5 1-504): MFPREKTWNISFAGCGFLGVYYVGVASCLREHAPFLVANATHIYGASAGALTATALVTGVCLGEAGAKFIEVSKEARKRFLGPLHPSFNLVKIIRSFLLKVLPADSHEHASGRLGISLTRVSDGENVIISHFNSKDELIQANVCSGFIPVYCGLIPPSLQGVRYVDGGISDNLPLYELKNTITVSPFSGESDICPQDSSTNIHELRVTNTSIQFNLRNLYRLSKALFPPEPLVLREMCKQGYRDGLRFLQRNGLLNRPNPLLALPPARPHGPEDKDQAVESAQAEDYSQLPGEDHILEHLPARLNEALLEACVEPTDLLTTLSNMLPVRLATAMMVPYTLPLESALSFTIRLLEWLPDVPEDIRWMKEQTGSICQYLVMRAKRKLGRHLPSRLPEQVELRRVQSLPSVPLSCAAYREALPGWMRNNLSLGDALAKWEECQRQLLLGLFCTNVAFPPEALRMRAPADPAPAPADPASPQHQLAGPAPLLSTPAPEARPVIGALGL
assay text: TG hydrolase activity, Expi cell lysates expressing human ATGL + CGI-58, radiolabelled triolein
Type: biochemical
condition info: Example 237; read-out: Inhibition of human ATGL − IC50
Reported IC50 values follow for various compounds
Kindly provide the numeric value in µM only, without the unit symbol.

CCCCCCOc1ccc(-c2cccc(C(=O)OC(C)C)n2)cc1
1
CCCOc1ccc(-c2cc(OC)cc(C(=O)OC(C)C)n2)cc1
3
COCOc1ccc(-c2cccc(C(=O)OC(C)C)n2)cc1
8
CCOC(=O)c1cccc(-c2ccc(C#N)cc2)n1
25
CC(=O)Oc1ccc(-c2cccc(C(=O)OC(C)C)n2)cc1
15
CCOc1ccc(-c2cc(OC)cc(C(=O)OC)n2)cc1
12
CCCCCOc1ccc(-c2cccc(C(=O)OC(C)C)n2)cc1
3
CC(C)OC(=O)c1cccc(-c2ccc(C(=O)N(C)C)cc2)n1
10
CCOc1ccc(-c2nc(C(=O)OC3CCC3)cs2)cc1
6
CCOc1ccc(-c2nc(C(=O)OCc3cccnc3)cs2)cc1
15

Task: Which IC50 is listed for CCOC(=O)c1csc(-c2ccc(SCC)cc2)n1 ?
Result: 12

Task: Which IC50 is listed for CSc1ccc(-c2cccc(C(=O)OC(C)C)n2)cc1 ?
Result: 3

Task: Which IC50 is listed for COCCOCCOc1ccc(-c2cccc(C(=O)OC(C)C)n2)cc1 ?
Result: 6

---

target system: hPNPLA9 (Homo sapiens, UniProt O60733)
Construct: made in house; host or cells: Expi cells (lysate)
Sequence (O60733 whole entry): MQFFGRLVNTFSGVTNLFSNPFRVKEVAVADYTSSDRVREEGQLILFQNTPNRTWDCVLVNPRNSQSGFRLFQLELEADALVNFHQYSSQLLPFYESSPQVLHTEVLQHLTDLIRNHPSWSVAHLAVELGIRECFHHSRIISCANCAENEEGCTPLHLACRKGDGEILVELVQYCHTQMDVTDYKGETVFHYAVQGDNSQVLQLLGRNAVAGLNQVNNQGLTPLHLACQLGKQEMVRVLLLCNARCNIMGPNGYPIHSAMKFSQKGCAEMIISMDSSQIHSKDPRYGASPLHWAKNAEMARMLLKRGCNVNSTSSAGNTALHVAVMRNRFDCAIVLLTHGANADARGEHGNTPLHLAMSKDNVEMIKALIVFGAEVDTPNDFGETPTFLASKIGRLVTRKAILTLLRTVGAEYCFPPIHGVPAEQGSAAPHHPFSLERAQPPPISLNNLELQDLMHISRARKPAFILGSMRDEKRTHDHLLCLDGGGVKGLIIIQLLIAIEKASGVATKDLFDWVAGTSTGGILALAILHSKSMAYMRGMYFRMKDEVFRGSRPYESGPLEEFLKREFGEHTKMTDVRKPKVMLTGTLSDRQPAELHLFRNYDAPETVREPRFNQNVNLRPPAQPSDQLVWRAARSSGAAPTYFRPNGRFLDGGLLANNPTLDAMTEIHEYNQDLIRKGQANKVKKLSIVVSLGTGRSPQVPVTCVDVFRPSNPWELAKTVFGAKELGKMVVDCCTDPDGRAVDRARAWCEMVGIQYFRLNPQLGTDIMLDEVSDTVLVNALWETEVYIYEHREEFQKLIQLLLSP
assay text: hPNPLA9 off-target inhibition
Type: biochemical
condition info: read-out: hPNPLA9 off-target inhibition [% inhibition at 100 μM]
value kind: inhibition at 100 µM (%)
Kindly provide the numeric value in % only, without the unit symbol.

Some compounds with known inhibition at 100 µM results, for comparison:
CCOc1ccc(-c2nc(C(=O)OCc3ccoc3)cs2)cc1
0
CCOc1ccc(-c2nc(C(=O)OCc3cccs3)cs2)cc1
0
CCOc1ccc(-c2cccc(C(=O)OCc3cccs3)n2)cc1
0
CCOc1ccc(-c2nc(C(=O)OCc3ccc(Cl)s3)cs2)cc1
0
C#C[C@H](C)OC(=O)c1csc(-c2ccc(OCC)cc2)n1
0
CC#CCOC(=O)c1csc(-c2ccc(OCC)cc2)n1
0
CCOc1ccc(-c2cccc(C(=O)OC(C)C)n2)cc1
0
CCOc1ccc(-c2cc(OC)cc(C(=O)OC(C)C)n2)cc1
0

// switching to the query compound
Task: Which inhibition at 100 µM is listed for CCCCOC(=O)c1csc(-c2ccc(OCC)cc2)n1 ?
Result: 0

---

target system: murine ATGL (Mus musculus, UniProt Q8BJ56)
Construct: made in house; host or cells: Expi cells (lysate)
Sequence (Q8BJ56 whole entry): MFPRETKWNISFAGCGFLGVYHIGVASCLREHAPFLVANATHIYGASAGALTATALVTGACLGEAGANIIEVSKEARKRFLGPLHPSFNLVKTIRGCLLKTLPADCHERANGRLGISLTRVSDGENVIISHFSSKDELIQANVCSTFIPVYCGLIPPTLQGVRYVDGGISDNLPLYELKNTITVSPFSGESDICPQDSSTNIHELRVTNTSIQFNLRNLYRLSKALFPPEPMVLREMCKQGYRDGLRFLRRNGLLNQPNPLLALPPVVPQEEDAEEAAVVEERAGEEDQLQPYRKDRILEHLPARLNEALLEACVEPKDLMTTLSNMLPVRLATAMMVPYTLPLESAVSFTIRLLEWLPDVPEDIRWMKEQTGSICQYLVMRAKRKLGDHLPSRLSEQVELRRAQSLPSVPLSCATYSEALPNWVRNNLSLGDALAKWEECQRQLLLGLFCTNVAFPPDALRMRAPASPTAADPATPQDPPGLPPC
assay text: TG hydrolase activity, Expi lysates expressing mouse ATGL + CGI-58, radiolabelled triolein
Assay type: biochemical
condition info: 50 μM; overview table; read-out: mouse ATGL inhibition [% inhibition at 50 μM]
Reported inhibition at 50 µM values follow for various compounds
Kindly provide the numeric value in % only, without the unit symbol.

COc1cc(C(=O)OC(C)C)nc(-c2ccc(OC(C)C)cc2)c1 [Example 201]
0
CCOc1ccc(-c2nc(C(=O)OCc3ccsc3)cs2)cc1 [Example 215]
60
C=CC(C)OC(=O)c1csc(-c2ccc(OCC)cc2)n1 (stereo not shown) [Example 148]
30

Task: Which inhibition at 50 µM is listed for C=C(C)COC(=O)c1csc(-c2ccc(OCC)cc2)n1 [Example 120] ?
Result: 40

Task: Which inhibition at 50 µM is listed for CCOc1ccc(-c2nc(C(=O)OC(C)C)cs2)cc1 [Example 123] ?
Result: 20

Task: Which inhibition at 50 µM is listed for C#C[C@@H](C)OC(=O)c1csc(-c2ccc(OCC)cc2)n1 [Example 211] ?
Result: 60

Task: Which inhibition at 50 µM is listed for CCOC(=O)c1csc(-c2ccc(OCC)cc2)n1 [Example 101] ?
Result: 30

---

Reported Ki values follow for various compounds
target system: human ATGL (Homo sapiens, UniProt Q96AD5)
Sequence (Q96AD5 1-504): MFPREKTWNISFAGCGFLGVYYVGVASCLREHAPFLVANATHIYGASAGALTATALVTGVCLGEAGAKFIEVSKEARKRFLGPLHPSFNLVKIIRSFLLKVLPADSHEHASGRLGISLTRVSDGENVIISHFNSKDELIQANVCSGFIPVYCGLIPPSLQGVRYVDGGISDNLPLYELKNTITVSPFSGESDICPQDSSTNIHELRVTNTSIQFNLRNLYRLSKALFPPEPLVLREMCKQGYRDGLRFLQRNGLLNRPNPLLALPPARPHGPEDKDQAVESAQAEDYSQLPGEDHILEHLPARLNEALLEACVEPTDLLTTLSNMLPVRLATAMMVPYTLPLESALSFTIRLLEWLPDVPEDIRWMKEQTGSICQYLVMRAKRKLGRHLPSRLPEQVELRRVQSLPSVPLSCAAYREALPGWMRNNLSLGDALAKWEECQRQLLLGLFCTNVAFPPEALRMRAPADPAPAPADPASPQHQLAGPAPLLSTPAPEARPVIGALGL
assay text: Ki determination, human ATGL lysates with increasing substrate concentrations
condition info: non-linear regression
Kindly provide the numeric value in nM only, without the unit symbol.

Some compounds with known Ki results, for comparison:
CCCCCCCOc1ccc(-c2cccc(C(=O)OC(C)C)n2)cc1 [Example 86]
470
C=C(C)COC(=O)c1csc(-c2ccc(OCC)cc2)n1 [Example 120]
1200
CCCCCCc1ccc(-c2cccc(C(=O)OC(C)C)n2)cc1 [Example 68]
270
CCOc1ccc(-c2nc(C(=O)OCc3cccs3)cs2)cc1 [Example 152]
8200
CCOC(=O)c1csc(-c2ccc(OCC)cc2)n1 [Example 101]
2500

// switching to the query compound
Task: Which Ki is listed for CCCc1ccc(-c2cccc(C(=O)OC(C)C)n2)cc1 [Example 43] ?
Result: 470

---

Tested on: differentiated SGBS adipocytes
assay text: Isoproterenol-stimulated lipolysis in differentiated SGBS adipocytes
Assay type: cell-based
condition info: Homo sapiens, 2 h pretreatment, 1 μM isoproterenol 1 h, fatty acid release, read-out: IC50 SGBS FA release
Experimental: Human differentiated SGBS adipocytes were pretreated with DMSO or ATGL inhibitors for 2 h. Subsequently, lipolysis was stimulated with 1 μM Isoproterenol for 1 h and fatty acid release was determined from media via NEFA Reagent (Wako Diagnostics). Samples were measured in triplicates. Human differentiated SGBS adipocytes were pretreated with DMSO or ATGL inhibitors for 2 h. […] Samples were measured in triplicates.
value kind: pIC50
Just so you know, pIC50 here is -log10 of the concentration in molar units; reply with that number alone.

CCOc1ccc(-c2cccc(C(=O)OCc3ccco3)n2)cc1
4.92
CCOc1ccc(-c2cc(OC)cc(C(=O)OC(C)C)n2)cc1
6.00
C=CC(C)OC(=O)c1csc(-c2ccc(OCC)cc2)n1 (stereo not shown)
5.70
CCOc1ccc(-c2cccc(C(=O)OC(C)C)n2)cc1
5.70
C#C[C@H](C)OC(=O)c1csc(-c2ccc(OCC)cc2)n1
6.22

Task: Which pIC50 is listed for CCOC(=O)c1csc(-c2ccc(OCC)cc2)n1 ?
Result: 5.52
